- run description: Thermostability, temperature of aggregation (ProteoStat Thermal Shift)
- Assay type: physicochemical
- Set-up: key: temperature in °C
- condition info: pH 5.6
Each entry below carries its recorded Tagg.
reported property: Tagg

• SEQID-00485: nutritive polypeptide naturally produced in Chickpea, recombinantly expressed in E. coli (protein, listed as Cicer arietinum) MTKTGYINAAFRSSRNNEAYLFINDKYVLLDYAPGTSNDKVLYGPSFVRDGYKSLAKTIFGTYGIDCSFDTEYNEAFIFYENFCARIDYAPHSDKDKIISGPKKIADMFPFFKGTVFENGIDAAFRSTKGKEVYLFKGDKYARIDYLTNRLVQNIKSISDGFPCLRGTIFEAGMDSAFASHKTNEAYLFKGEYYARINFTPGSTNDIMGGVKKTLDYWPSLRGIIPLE = 34.5
• SEQID-00622: protein of the 168 nutritive polypeptide library (protein, listed as Oryza sativa, source: /note="subsp. japonica", protein of the 168 nutritive polypeptide library) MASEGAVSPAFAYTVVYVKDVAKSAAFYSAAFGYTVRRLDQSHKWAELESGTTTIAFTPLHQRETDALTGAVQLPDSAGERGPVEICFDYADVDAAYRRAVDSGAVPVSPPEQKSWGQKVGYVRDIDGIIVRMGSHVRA = 45.5
• SEQID-00502: protein of the 168 nutritive polypeptide library (protein, Glycine max, protein of the 168 nutritive polypeptide library) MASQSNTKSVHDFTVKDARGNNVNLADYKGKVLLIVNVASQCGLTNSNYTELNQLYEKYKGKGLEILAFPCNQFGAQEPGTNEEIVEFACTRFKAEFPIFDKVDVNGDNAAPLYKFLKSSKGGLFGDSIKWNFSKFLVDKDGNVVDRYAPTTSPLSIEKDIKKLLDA = 77
